Tested on: NCI-H460 lung
Test: NCI-60 one-dose screen, 48 h (100 = growth as untreated, 0 = no growth, -100 = all killed)
Settings: 10 µM
The panel holds about 83,000 compounds, 20% with a hit somewhere; the sample as a whole holds those more often.
// values below are reported growth
Write it as a number; the unit % goes unstated.

>>> print(df.to_string())
                    structure_smiles_string  outcome_measure  units_of_measure  observed_measurement
0  CCCn1c(O)c(N=Nc2nc(-c3cc4ccccc4oc3=O)cs2)c2cc(Br)ccc21           growth                 %                   110
1  CN1CCc2c(sc3ncnc(N/N=C/c4cn(-c5ccccc5)nc4-c4ccc(Br)cc4)c23)C1           growth                 %                  18.7
2  O=C1Nc2cc(-c3ccc(NC(=O)c4cccs4)cc3)ccc2/C1=C/c1ccc[nH]1           growth                 %                    83
3  NS(=O)(=O)c1ccc(NC(=O)CSc2ccc(-c3ccccc3)nn2)c(Br)c1           growth                 %                  82.4

Moving on to the next molecule.
growth lookup needed for CN1C/C(=C\c2ccc(O)cc2O)c2[o+]c3cc(O)ccc3cc2C1 , thanks. 35.8

====

System: UACC-257 melanoma
Assay: NCI-60 one-dose screen, 48 h (100 = growth as untreated, 0 = no growth, -100 = all killed)
Details: 10 µM
About 83,000 compounds went through this panel and 20% of them were active in at least one assay; those are over-represented in the sample as a whole.
Listed below: growth values for each entry.
Reply with just the number (in %).

>>> df
                                   compound  outcome_measure  observed_measurement
0  CC(=O)Nc1ccc(-n2cnc3cc(-c4ccc(O)cc4)ccc32)cc1C           growth                  61.2
1               CN1C(=O)/C(=C/c2nccs2)SC1=S           growth                  85.4
2  COc1nccnc1NS(=O)(=O)c1ccc(NC2=C(Cl)C(=O)c3nc(C)ccc3C2=O)cc1           growth                   101
3  COc1cccc(C(N)=Nc2ccc(OCCCCCCn3cncn3)cc2)c1           growth                    56
4  COc1ccc(C(=O)/C=C/c2cc(C(F)(F)F)cc(C(F)(F)F)c2)cc1S(N)(=O)=O           growth                 -55.5
5  COc1cc2c(c(OC)c1OC)C(=O)CC(c1cccc(NC(=O)c3cccc(N)c3)c1)O2 (centres undefined)           growth                  93.4

Given the compound Cc1ccc(-c2cc(-c3cc4ccccc4nc3Cl)[nH]c(=O)n2)cc1 , what is its reported growth? 47

Need growth of COc1ccc(N2N=C(c3ccc4c(c3)OCCO4)CC2c2cccc(NC(=O)CCCNS(=O)(=O)c3ccc(F)cc3)c2)cc1 (centres undefined) , thanks. 88

Looking for the measured growth of Nc1nc2c(F)c(F)c(F)c(F)c2s1 , can you help? 104

====

System: CAKI-1 renal
Experiment: NCI-60 one-dose screen, 48 h
Conditions: 10 µM
Compounds without any hit were thinned out: in the full panel of roughly 83,000, 20% have a hit. Activity calls are given as the source filed them. How the source made its calls: active means growth percent below 10; inactive means the rest.
Would you mind answering with one of these outcomes? 1.0 (active), 0.0 (inactive)

# outcome recorded in this test, key = N#C/C(=C\c1ccc(N(c2ccccc2)c2ccccc2)cc1)C(N)=O 1.0

Short answer needed: outcome of this test for COc1ccc(C(=O)Nc2sc3c(c2C#N)CCC(=O)C3)cc1C(F)(F)F ? 1.0

Entry O=C(NO)c1ccc(-c2nc3ccc4[nH]ncc4c3c3c2CCCC3)cc1 : call = ? 1.0

Assay result, entry O=C1Nc2ccc(F)cc2/C1=C/c1cccc(OCc2ccccc2)c1 — outcome? 0.0

Query: recorded result category for O=c1[nH]c2ccc(Cl)cc2cc1CSc1ccc(Nc2nccc(-c3ccc(Cl)cc3)n2)cc1 in this test 0.0

What is the recorded call for this molecule in the test? Cc1ccc(-c2nc3ccc(C(=O)N=Nc4c(O)[nH]c5ccc(Br)cc45)cc3[nH]2)cc1 0.0

Assay result, entry O=C(CNc1nc(-c2ccccc2)cs1)Nc1ccccc1 — outcome? 1.0

What did the test return for Nc1n[nH]c2cccc(C#Cc3cccc(NC(=O)Nc4cc(C(F)(F)F)cc(C(F)(F)F)c4)c3)c12 ? 1.0

What outcome does the record of this test show for O=C(Nc1ccc(OCc2ccccc2)cc1)Nc1ccc(Cl)c(C(F)(F)F)c1 ? 1.0

How did this test come out for COc1ccc(-c2cc(C(=O)N=Nc3c(O)[nH]c4ccc(Br)cc34)c3ccccc3n2)cc1 ? 0.0

Assay outcome for COc1ccc(CCN2C(=O)/C(=C/c3csc(C#N)n3)SC2=S)cc1 : what was it? 1.0

Recorded call for O=C(N=Nc1c(O)[nH]c2ccc(Br)cc12)c1ccc2nc(-c3ccccc3)[nH]c2c1 ? 0.0

Query: recorded result category for C=CCn1c(SCC(=O)Nc2ccc(C(=O)/C=C/c3ccccc3)cc2)nnc1-c1c[nH]c2ccccc12 in this test 0.0

====

Each record here notes measured growth.
Test system: HOP-92 NSCLC
Assay: NCI-60 one-dose screen, 48 h (100 = growth as untreated, 0 = no growth, -100 = all killed)
Conditions: 10 µM
Compounds without any hit were thinned out: in the full panel of roughly 83,000, 20% have a hit.
Give the value, in units of %, as a plain number.

>>> print(df.to_string())
                    structure_smiles_string  outcome_measure  observed_measurement
0  O=C(CSc1nnc(-c2c[nH]c3ccccc23)n1-c1ccccc1)Nc1ccc(C(=O)/C=C/c2ccc(Br)cc2)cc1           growth                  89.4
1  CC1(C)CC[C@]2(C(=O)NCCCNCCCCNCCCN)CC[C@]3(C)C(=CC[C@@H]4[C@@]5(C)Cc6c([nH]c7ccccc67)C(C)(C)[C@@H]5CC[C@]43C)[C@H]2C1           growth                  60.5
2   O=C1NC(=NC2CCCCCC2)N/C1=C\c1ccc2ncoc2c1           growth                  51.3
3  Clc1ccc2c(N/N=C/c3c[nH]c4ccc(Br)cc34)ccnc2c1           growth                 -69.1

Next item in the queue.
Provide value of growth for this record tested with HOP-92 NSCLC: COc1cccc(C(N)=Nc2ccc(OCCCCCCn3cncn3)cc2)c1 79.3

====

Test system: SF-539 CNS
Test: NCI-60 one-dose screen, 48 h (100 = growth as untreated, 0 = no growth, -100 = all killed)
Details: 10 µM
This is part of a sample that, as a whole, favours compounds with a hit. Of some 83,000 tested, about 20% had one in any assay.
OUTCOME MEASURE: growth (%)
Report the figure in % without appending any unit label.

                                   compound  observed_measurement
0  O=C1NC(=NC23CC4CC(CC(C4)C2)C3)N/C1=C\c1ccc2ncsc2c1                 -23.9
1  CO[C@@H]1CSSC1Cn1nc(-c2ccc(Oc3ccccc3)cc2)c2c(N)ncnc21 (stereo partly specified)                  44.1
2  [2H]C([2H])([2H])Oc1ccc2ncc(C#Cc3cncc(C(=O)Nc4ccc(CN5CCN(C)CC5)c(C(F)(F)F)c4)c3)n2n1                 -90.2
3  O=C(O)CCCCCCCCCCN1C(=O)/C(=C/c2cnc(-c3ccc(Cl)cc3)s2)SC1=S                  36.4

Tell me the measured growth of CCOC(=O)C1=C(N)N(c2ccc(Cl)cc2)C2=C(C(=O)CC(C)(C)C2)C1c1ccc(N2CCOCC2)cc1 (stereo unspecified) , please. 100

Return reported growth; argument: O=C(Cn1cc(CSc2nnc3oc4ccccc4n23)nn1)Nc1cccc(Cl)c1 70.6

====

The entries below come with measured growth values attached.
Test system: SW-620 colon
Assay: NCI-60 one-dose screen, 48 h (100 = growth as untreated, 0 = no growth, -100 = all killed)
Settings: 10 µM
This is part of a sample that, as a whole, favours compounds with a hit. Of some 83,000 tested, about 20% had one in any assay. Calls of active or inactive are those of the source. How the source made its calls: active means growth percent below 10; inactive means the rest.

Example entries and their recorded answers appear below.
>>> df
                                   compound  observed_measurement
0  CCCn1c(O)c(N=Nc2nc(-c3cc4ccccc4oc3=O)cs2)c2cc(Br)ccc21       106% (inactive)
1  C/C(=C\c1ccc(O)cc1O)c1ccc2ccc(O)cc2[o+]1      44.8% (inactive)
2  O=C1NC(=NC23CC4CC(CC(C4)C2)C3)N/C1=C\c1ccc2ncccc2n1        2.73% (active)
3  O=C(c1ccc(Cl)cc1)C1[C@H](c2ccc(Br)cc2)[C@@H](c2ccccc2)NC12C(=O)Nc1ccc(Br)cc12 (some centres undefined)       -71.6% (active)
4  N#Cc1ccc(-c2nn(-c3ccc(C(=O)O)cc3)cc2CNc2cc(Cl)cc(C(F)(F)F)c2)cc1      21.2% (inactive)

Please give the measured growth for this compound: NC(=Nc1ccc(OCCCCCCCCn2ccnn2)cc1)c1ccccc1 32.4% (inactive)

Which growth value belongs to COc1ccc(C(=O)/C=C/c2ccc(Cl)c(C(F)(F)F)c2)cc1S(N)(=O)=O ? -94.7% (active)

I'd like to know its growth. The compound in question is Cc1ccc(/C=C/C(=O)c2ccc(NC(=O)CSc3nnc(-c4c[nH]c5ccccc45)n3-c3ccccc3)cc2)cc1 90.1% (inactive)

Which growth reading was recorded for the compound O=C1Nc2cc(Cl)ccc2/C1=C/c1cccc(OCc2ccc(Br)cc2F)c1 ? 19.5% (inactive)

Item N[C@@H](CSSC[C@H](N)C(=O)Nc1ccc(OCC2CCCC2)cc1)C(=O)Nc1ccc(OCC2CCCC2)cc1 has what recorded growth? -84% (active)
